- protocol text: chemical genetic growth profiling, strain panel (AID 1159580);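 also: tested at 20 µM; growth read once vehicle control cultures reached saturation at 30 °C; 1 = growth at the plate median or of vehicle wells; lower values mean less growth of the strain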
- test context: S. cerevisiae deletion strains, growth OD, locus YDR388W, active compounds read low
Among all 5,500 compounds or so, about 2,000 (36%) were called active. Roughly 18% stayed inconclusive and do not appear here. The list shows a part of the results.
quantity kind: normalized growth

compound: CC1(C)C(=O)C=C[C@@]2(C)C1CC(=O)[C@]1(C)C2CC[C@@]2(C)[C@H](c3ccoc3)OC(=O)[C@H]3O[C@]321 (stereo partly drawn)
normalized growth: 1.02 (inactive)
--
compound: COc1ccc(-c2oc3c(CC=C(C)C)c(O[C@@H]4O[C@H](CO)[C@@H](O)[C@H](O)[C@H]4O)cc(O)c3c(=O)c2O[C@@H]2O[C@@H](C)[C@H](O)[C@@H](O)[C@H]2O)cc1
normalized growth: 0.99 (inactive)
--
compound: CC(C)(C)NCC(O)c1cc(Cl)c(N)c(Cl)c1 (stereo not drawn)
normalized growth: 0.992 (inactive)
--
compound: CCCCCc1c2c(cc(O)c1C(=O)O)OC(=O)c1c(cc(OC)cc1C(=O)CCCC)O2
normalized growth: 0.997 (inactive)
--
compound: CC1(C)C(=O)C=C[C@@]2(C)C1C[C@@H](O)[C@]1(C)C2CC[C@@]2(C)[C@H](c3ccoc3)OC(=O)[C@H]3O[C@]321 (stereo partly drawn)
normalized growth: 0.996 (inactive)
--
compound: NC(=O)CN1CCCC1=O
normalized growth: 1.01 (inactive)
--
compound: CC1(C)C(=O)C=C[C@@]2(C)C1C=C[C@]1(C)C2CC[C@@]2(C)[C@H](c3ccoc3)OC(=O)C3OC321 (stereo partly drawn)
normalized growth: 0.984 (inactive)

# input for lookup
Q) Item CC1(C)C=CC(=O)[C@@]2(C)C1CC(=O)[C@]1(C)C2CC[C@@]2(C)[C@H](c3ccoc3)OC(=O)C3OC321 (stereo partly drawn) has what recorded normalized growth?
A) 0.982 (inactive)
